Tested on: 323965-272-R-J2-PDC complex spheroid growth, % test/control;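 further: compound exposure lasted 7 days starting three days after spheroid seeding; 100% = DMSO vehicle control wells with viability set relative to vehicle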
PROCEDURE SUMMARY: Anticancer human tumor 323965-272-R-J2-PDC patient-derived pancreatic carcinoma cell line growth inhibition [Asc]
CONDITION LABEL: second compound 0.0316 µM; first compound 0.00316 µM; stronger effect = lower value

MOLECULE | viability, T/C (%)
CCN1CCN(Cc2ccc(Nc3ncc(F)c(-c4cc(F)c5nc(C)n(C(C)C)c5c4)n3)nc2)CC1 + CNC(C)C(=O)NC1CN(S(=O)(=O)c2cccc(S(=O)(=O)N3CCC4CCC(C(=O)NC(c5ccccc5)c5ccccc5)N4C(=O)C(NC(=O)C(C)NC)C3)c2)CCC2CCC(C(=O)NC(c3ccccc3)c3ccccc3)N2C1=O | 101
COc1c(OCCCN2CCOCC2)ccc2c3n(c(=NC(=O)c4cnc(N)nc4)nc12)CCN3 + Cc1c(S(C)(=O)=O)c(-c2cc(F)cc(N3CCN(c4ccc(NS(=O)(=O)c5ccc(NC(CCN6CCC(C(=O)OCCCP(=O)(O)O)CC6)CSc6ccccc6)c(S(=O)(=O)C(F)(F)F)c5)cc4)CC3)c2)c(-c2ccc(Cl)cc2)n1C(C)C | 110
O=C(c1ccc(F)c(F)c1Nc1ccc(I)cc1F)N1CC(O)([C@@H]2CCCCN2)C1 + CNC(C)C(=O)NC1CN(S(=O)(=O)c2cccc(S(=O)(=O)N3CCC4CCC(C(=O)NC(c5ccccc5)c5ccccc5)N4C(=O)C(NC(=O)C(C)NC)C3)c2)CCC2CCC(C(=O)NC(c3ccccc3)c3ccccc3)N2C1=O | 94.5
CCN1CCN(Cc2ccc(Nc3ncc(F)c(-c4cc(F)c5nc(C)n(C(C)C)c5c4)n3)nc2)CC1 + Cc1c(S(C)(=O)=O)c(-c2cc(F)cc(N3CCN(c4ccc(NS(=O)(=O)c5ccc(NC(CCN6CCC(C(=O)OCCCP(=O)(O)O)CC6)CSc6ccccc6)c(S(=O)(=O)C(F)(F)F)c5)cc4)CC3)c2)c(-c2ccc(Cl)cc2)n1C(C)C | 110
